- Test system: Malme-3M
- assay: NCI tumour cell line growth inhibition, 48 h
Calls of active or inactive are those of the source. Rule as the data show it: active = GI50 up to about 1.1 µM and inactive = higher.
# output must be one of active, inactive

- CCOC(=O)C(CCC(N)=O)(CCC(=O)OC)C(=O)OCC: inactive
- O=C1CCN/C(=N\C(=O)C(F)(F)F)N1CCc1c[nH]c2ccccc12: inactive

**Query** In this assay, the call recorded for Brc1ccc2c(c1)[C@H]1CCc3c([nH]c4ccccc34)[C@H]1N2 was what?
**Result** inactive

**Query** Same for CC12CC(=O)C3C(C(=O)C1)C32C (stereo unspecified)
**Result** inactive

**Query** Same for O=C(NCCCNCCCCNCCCNC(=O)c1cc(-c2ccccc2)nc2ccccc12)c1cc(-c2ccccc2)nc2ccccc12
**Result** inactive

**Query** Same for CC(C)(C)/N=C\N(C=C(c1ccccc1)c1ccccc1)C1CCCCC1
**Result** inactive

**Query** Same for COC1/C=C\C=C(/C)C(=O)Nc2cc3nc4ccc(Br)cc4oc-3c(c2=O)CC(C)CC(OC)C(O)C(C)/C=C(\C)C1OC(N)=O (stereo unspecified)
**Result** active

**Query** Same for CN(C)CC1COC2Cc3ccccc3C1O2 (stereo unspecified)
**Result** inactive

**Query** Same for O=C(O)CCCN1CCCCC1
**Result** inactive

**Query** Same for N#Cc1cccc(N2C(=O)C3C4C=CC(C3C2=O)C2C(=O)N(c3cccc(C#N)c3)C(=O)C42)c1 (stereo unspecified)
**Result** inactive

**Query** Same for CCCCCCCCCCCCSC(=S)c1c(C)[nH]n(-c2ccccc2)c1=O
**Result** inactive

**Query** Same for CCOC(=O)c1csc(NC(=O)CN2CCN(c3ccccc3)CC2)n1
**Result** inactive

**Query** Same for NC1=NN(c2ccccc2)C2(c3ccncc3C(=O)O)C1C(N)=NN2c1ccccc1 (stereo unspecified)
**Result** inactive

**Query** Same for CCCCCCCCC(=O)NCCCNCCCNC(=O)CCCCCCCC
**Result** inactive

---

- Test system: HCT-15
quantity: GI50 (µM)
Reply numerically in µM, unit not repeated.

* Oc1cc(-c2ccc(F)cc2)nc2ncc(Cl)cc12 | 4.62
* Cn1c(=S)[nH]c(N)c(Cc2ccccc2)c1=O | 42.9
* COc1ccc2c(c1)[n+]([O-])c(C(=O)C/C(=N/NC(=O)c1ccccc1O)C(=O)Nc1ccc(Cl)c(C(F)(F)F)c1)c(C)[n+]2[O-] | 43.7
* Nc1ccc2c(SCc3ccc([N+](=O)[O-])cc3)c3ccccc3nc2c1 | 13.5

**Query** Look at this compound and give its reported GI50. CC(O)c1cc2c(s1)C(=O)c1ccsc1C2=O (stereo not given)
**Result** 0.0409

**Query** Same for CC(C)(C)c1cc(C(O)(C(F)(F)F)C(F)(F)F)c2c(c1)C(C(F)(F)F)(C(F)(F)F)OC(C)(C(C)(C)C)N2 (stereo not given)
**Result** 3.83

**Query** Same for CCOC(=O)C(=O)CC(=O)C(Br)C(Br)c1ccc(Cl)cc1 (stereo not given)
**Result** 33.5

---

Listing: GI50 of selected molecules
- Test system: HT-29
- assay: NCI tumour cell line growth inhibition, 48 h
Calls of active or inactive are those of the source. Rule as the data show it: active = GI50 up to about 1.1 µM and inactive = higher.

Example entries begin here.
• CCOC(=O)C(Cc1ccc(N(CCCl)CCCl)cc1)NC(=O)CCCN1C(=O)CN=C(c2ccccc2)c2cc(Cl)ccc21 (centres undefined) = 15.3 µM (inactive)
• O=C(Cc1nc2ccccc2s1)NC12CC3CC(CC(C3)C1)C2 = > 100 µM (inactive)
• COc1ccc2c(c1)[n+]([O-])c(C(=O)C/C(=N/NC(=O)c1ccccc1O)C(=O)Nc1ccc(Cl)c(C(F)(F)F)c1)c(C)[n+]2[O-] = > 100 µM (inactive)
• O=c1c(O)c(-c2cc(O)c(O)cc2O)oc2cc(O)c(C3OC(CO)C(O)C(O)C3O)c(O)c12 (centres undefined) = > 100 µM (inactive)
• Nc1ccccc1SCc1csc(-c2ccc(Cl)cc2)n1 = 23.6 µM (inactive)
• Nc1ccc2c(SCc3ccc([N+](=O)[O-])cc3)c3ccccc3nc2c1 = 17.5 µM (inactive)

**Query** Look at this molecule and give its reported GI50. Cc1ccc(NC(c2ccccc2)c2ccc3cccnc3c2O)cc1 (centres undefined)
**Result** 2.9 µM (inactive)

**Query** Same for CC1(C)OC(=S)N(c2ccccc2)C12C=Cc1cc3ccccc3cc1O2 (centres undefined)
**Result** > 100 µM (inactive)

**Query** Same for CC(C)(C)c1ccc(-c2nnc(-c3cc(C#N)cc(-c4nnc(-c5ccc(C(C)(C)C)cc5)o4)c3)o2)cc1
**Result** > 100 µM (inactive)

---

- Test system: U-251
- assay: NCI tumour cell line growth inhibition, 48 h
Activity calls are given as the source filed them. Rule as the data show it: active = GI50 up to about 1.1 µM and inactive = higher.
# output must be one of 1 (yes) for active, 0 (no) for inactive

// known answers, use as guide
- CC12CC(=O)C3C(C(=O)C1)C32C (stereo not given): 0 (no)
- C[C@H]1CC[C@@H]2[C@@H](C)[C@H]3[C@H](C[C@H]4[C@@H]5CC=C6C[C@@H](O)CC[C@]6(C)[C@H]5CC[C@]34C)N2C1: 0 (no)
- C/C1=C\[C@@H](O)C(=O)/C=C/C=C\c2csc(n2)[C@@H](C)NC(=O)C[C@@]2(CC1)[S+]([O-])SC(=O)[C@]2(C)O (stereo not given in full) [LEINAMYCIN]: 1 (yes)
- OCCN(/N=C\c1ccc2ccccc2c1)C1=NCCN1: 0 (no)
- Fc1ccc(Oc2nc3ccccc3nc2-c2ccccc2)cc1: 0 (no)

**Query** In this assay, the call recorded for CC1=NOC(=O)/C1=C/c1cccc2ccccc12 was what?
**Result** 0 (no)

**Query** Same for CC(O)CNC(=O)C(C)Oc1ccc(OCC2CCCCC2)cc1 (stereo not given)
**Result** 0 (no)

**Query** Same for COc1ccc2c(c1)C(=O)N1CCOC1C2C(=O)O (stereo not given)
**Result** 0 (no)

**Query** Same for Clc1cccc(Cl)c1C1SCc2nc3ccccc3n21 (stereo not given)
**Result** 0 (no)

**Query** Same for COc1cc(/C=C2\N=C(c3ccccc3)N(c3nc4ccc(Sc5ccccc5)cc4[nH]3)C2=O)ccc1O
**Result** 0 (no)

**Query** Same for CC(C)(C)CC(C)(C)c1ccc(O)c(C[N+](C)(C)[O-])c1
**Result** 0 (no)

**Query** Same for O=C1N[C@@H](c2c[nH]c3cc(Br)ccc23)C(=O)N[C@H]1c1c[nH]c2cc(Br)ccc12
**Result** 0 (no)

---

Listing: GI50 of selected compounds
- Test system: UACC-257
- assay: NCI tumour cell line growth inhibition, 48 h
Activity calls are given as the source filed them. Rule as the data show it: active = GI50 up to about 1.1 µM and inactive = higher.

Example entries begin here.
- CCOc1c(OC)cc(C2c3cc4c(c(OCC)c3CC3COC(=O)C32)OCO4)cc1OC (stereo not given): 0.912 µM (active)
- Nc1c(C(=O)N/N=C/c2ccccc2)sc(=S)n1-c1ccccc1: > 100 µM (inactive)
- COc1ccc2c(c1)C(=O)N1CCOC1C2C(=O)O (stereo not given): > 100 µM (inactive)

Shift focus to the following entry.
**Query** Look at this compound and give its reported GI50. C#CCn1c(=O)c(C)cn(/C(=C/C(=O)OCC)C(=O)OCC)c1=O
**Result** 14.4 µM (inactive)

---

Listing: GI50 of selected compounds
- System: RXF 393
- assay: NCI tumour cell line growth inhibition, 48 h
Activity calls are given as the source filed them. Cut-off read from the data, not from the text of the source: active = GI50 up to about 1.1 µM and inactive = higher.

Example entries begin here.
- O=P1(N(CCCl)CCCl)Oc2c(Cl)cc(Cl)c(Cl)c2Cc2c(Cl)c(Cl)cc(Cl)c2O1: > 100 µM (inactive)
- O=C(O)CCNS(=O)(=O)c1ccc(NC(=O)c2ccccc2)cc1: > 100 µM (inactive)
- CCOC(=O)/C(=C\c1ccc(N(CCC#N)CCC#N)cc1C)NC(=O)/C=C/c1ccccc1: > 100 µM (inactive)

**Query** Look at this compound and give its reported GI50. CCOC(=O)/C=C/[C@H](O[Si](c1ccccc1)(c1ccccc1)c1ccccc1)C(C)(C)C
**Result** 15.5 µM (inactive)

**Query** Same for NC1(CCCCCCCCCCC(=O)O)CNCCNCCNCCNC1
**Result** 27.7 µM (inactive)

**Query** Same for COc1cc2[nH]c(=O)[nH]c2c2c(C)c[nH]c12
**Result** > 100 µM (inactive)

---

- Tested on: HT-29
- assay: NCI tumour cell line growth inhibition, 48 h
Calls of active or inactive are those of the source. Cut-off read from the data, not from the text of the source: active = GI50 up to about 1.1 µM and inactive = higher.
quantity: GI50

- O=C1Cc2c([nH]c3ccc([N+](=O)[O-])cc23)-c2ccccc2N1: 0.389 µM (active)
- Brc1cc(C2OCCCO2)ccc1OCc1ccccc1: 17.5 µM (inactive)
- CN1C(=O)CC2(C)c3cc(O)cc(Br)c3N(C)C12 (centres undefined): > 100 µM (inactive)

Shift focus to the following entry.
**Query** Look at this compound and give its reported GI50. Cc1c(Cl)c(S(N)(=O)=O)cc2c1N=CNS2(=O)=O
**Result** > 100 µM (inactive)

Recorded values, source ChEMBL document CHEMBL1201862.
